Tested on: OVCAR-8 ovarian
assay.notes: NCI tumour cell line growth inhibition, 48 h; in the data active = GI50 below about 0.43 µM; inactive = the rest
Labels: active, inactive

compound: CC[C@@]1(O)C(=O)OCc2c1cc1n(c2=O)Cc2cc3c([N+](=O)[O-])c(OC)ccc3nc2-1
class.label: active
//
compound: CN(CCO)C1CCN(c2ccc(Nc3ncc4c5ccnc(F)c5n(C5CCCC5)c4n3)nc2)CC1
class.label: inactive
//
compound: CC(C)(Oc1ccc(Cl)cc1)C(=O)NC1C2CC3CC1CC(NS(C)(=O)=O)(C3)C2 (centres undefined)
class.label: inactive
//
compound: Nc1nc2cc(-c3ccc4ncc(C(=O)N5CCOCC5)n4c3)ccc2o1
class.label: inactive
//
compound: CCN(CCCNC(=O)Cc1cc(=O)oc2cc(N(C)C)ccc12)CCNc1ccnc2cc(Cl)ccc12
class.label: inactive
//
compound: COC(=O)c1c2c(c(C)[n+]([O-])c1C)C(=O)C(NCc1cccc(Cl)c1)=CC2=O
class.label: inactive
//
compound: COc1ccc2c(c1)CC[C@@H]1[C@@H]2CC[C@]2(C)C(c3ccsc3)=C(/C=C/C(=O)c3ccccc3)C[C@@H]12
class.label: inactive
//
compound: Cc1nn(-c2ccccc2)c(-n2ccnc2)c1/C=N/Nc1nc(-c2ccc(Cl)c(Cl)c2)cs1
class.label: inactive
//
compound: Oc1ccc(/C=C/c2ccc(O)cc2)cc1
class.label: inactive

###

System: MOLT-4 leukemia
assay.notes: NCI tumour cell line growth inhibition, 48 h
attribute.measured: TGI (µM)

compound: COc1ccc(/C=N/Nc2nc(N)nc(N3CCCC3)c2C#N)cc1
value.prefix: =
result.number: 58.9

compound: O=C(/C=C\c1ccc(-c2ccccc2)cc1)c1cccs1
value.prefix: >
result.number: 28.1

compound: CC(=O)OCC1OC(NC(=S)CCSc2nc3ccccc3c(=O)n2-c2ccccc2)C(OC(C)=O)C(OC(C)=O)C1OC(C)=O (stereo not given)
value.prefix: >
result.number: 100

compound: C=C1C(=O)O[C@H]2[C@H]1CC/C(COC(=O)NCc1ccc(Cn3c(=O)sn(CCI)c3=O)cc1)=C\CC[C@@]1(C)O[C@@H]21
value.prefix: =
result.number: 5.35

compound: O=C(O)C1(C(=O)O)CC1
value.prefix: >
result.number: 100

###

Test system: CCRF-CEM leukemia
assay.notes: NCI tumour cell line growth inhibition, 48 h
In this section we review reported TGI values for a set of compounds.

compound: O=Cc1ccc(-c2nccc3c2[nH]c2ccccc23)o1
TGI: > 100 µM
//
compound: CSc1nc(-c2ccccc2)c(C#N)c(=O)[nH]1
TGI: > 100 µM
//
compound: CN=c1oc2ccccc2cc1C(N)=O
TGI: > 100 µM
//
compound: Cn1cc2ccccc2c1-c1nc(F)nc(Oc2ccc3c(c2)CC[C@@H]2C3CC[C@@]3(C)C2CC[C@@H]3O)n1 (stereo partly specified)
TGI: > 100 µM
//
compound: CNc1ccc(S(=O)Nc2ccc(OC)cc2)cc1 (stereo unspecified)
TGI: > 100 µM
//
compound: N#Cc1c(-c2ccccc2)n([O-])c2ccccc2[n+]1=O
TGI: 46.1 µM
//
compound: CN(CC(=O)O)c1ncc2c(n1)-c1ccccc1OC2c1ccccc1 (stereo unspecified)
TGI: > 100 µM
//
compound: CN(C)c1ccc(C=NC23CC4CC(CC(C4)C2)C3)cc1
TGI: > 100 µM
//
compound: CC(=O)NC(C)(C)C1CC=C(C)/C(=N\O)C1 (stereo unspecified)
TGI: > 100 µM
//
compound: Cc1cc(C)c2c(=O)cc(-c3cccc(Cl)c3)[nH]c2n1
TGI: > 100 µM
//
compound: C[C@]12CCc3nonc3C1CC[C@@H]1C2CC[C@]2(C)C(=O)/C(=N\O)CC12 (stereo partly specified)
TGI: > 100 µM
//
compound: CCP(=S)(CC)CCl
TGI: > 100 µM
//
compound: N#Cc1nc(-c2cccnc2)oc1N
TGI: > 100 µM
//
compound: Cc1ccc2c(NCCCN(C)C)c3c(C)nn(C)c3nc2c1
TGI: 88.8 µM
//
compound: CC1=C(C#N)C2C(=C(C)N1)C(N)=Nc1ccccc12 (stereo unspecified)
TGI: > 100 µM
//
compound: COc1ccc(N(CC(=O)O)S(=O)(=O)c2ccccc2)cc1
TGI: > 100 µM
//
compound: COC(=O)C(Cc1nc2ccc(Cl)cc2[nH]c1=O)/C(=N/O)C(=O)Nc1cccc(Cl)c1C (stereo unspecified)
TGI: > 100 µM
//
compound: O=[N+]([O-])c1ccc2nc3n(c2c1)C(c1c(F)cccc1F)SC3 (stereo unspecified)
TGI: > 100 µM
//
compound: CN(C)c1ccc(O)c2c1CC1CC3C(N(C)C)C(=O)C(C(N)=O)=C(O)C3(O)C(=O)C1=C2O (stereo unspecified)
TGI: > 100 µM
//
compound: COc1cc(Br)c(CC2NCCc3cc(OC)c(OC)cc32)cc1OC (stereo unspecified)
TGI: > 100 µM
//
compound: COC(=O)[C@@H]1CCCN1C(=O)[C@@H]1CCCN1C(=O)[C@H](Cc1ccccc1)NC(=S)Nc1cc(C(F)(F)F)cc(C(F)(F)F)c1
TGI: > 100 µM
//
compound: NC(=O)c1ncn2c1NCC1OC2C(O)C1O (stereo unspecified)
TGI: > 100 µM
//
compound: COc1ccc(/C=N/Nc2nc(N)nc(N3CCCC3)c2C#N)cc1
TGI: 49.2 µM
//
compound: COC(=O)C12C3C4C1C1C2C3C41C(=O)O (stereo unspecified)
TGI: > 100 µM
//
compound: CN1C(c2ccccc2)CC(=NOCc2ccccc2)CC1c1ccccc1 (stereo unspecified)
TGI: 70.8 µM
//
compound: Cc1nc2nnnn2c2c1C(=O)Nc1ccccc1N2
TGI: > 100 µM
//
compound: COC(=O)c1c2c(c(C)[n+]([O-])c1C)C(=O)C(NCc1cccc(Cl)c1)=CC2=O
TGI: 8.53 µM
//
compound: O=NNc1ccc(S(=O)c2ccccc2)cn1 (stereo unspecified)
TGI: > 100 µM
//
compound: Cn1c2ccccc2c(=NNc2ccc(S(N)(=O)=O)cc2)c2ccccc21
TGI: > 50 µM
//
compound: CCCCCOC(=O)C(=O)Nc1n[nH]nc1C(N)=O
TGI: > 100 µM
//
compound: Cn1cnc([N+](=O)[O-])c1Sc1nc2ncccc2[nH]1
TGI: 64.2 µM

###

System: UACC-62 melanoma
assay.notes: NCI tumour cell line growth inhibition, 48 h
attribute.measured: TGI (µM)

molecule: COC(=O)[C@](NC(=O)OCc1ccccc1)([C@@H](C)Sc1ccc(C)cc1)C(F)(F)F
unit.label: µM
value.prefix: >
result.number: 100
--
molecule: O=C(O)CCC(=O)C(=O)O
unit.label: µM
value.prefix: >
result.number: 100
--
molecule: CCCCCCCCCCCCCCCCNC(=O)OC(C)C
unit.label: µM
value.prefix: =
result.number: 19
--
molecule: CCOP(=O)(/C=C/n1ccc(=O)[nH]c1=O)OCC
unit.label: µM
value.prefix: >
result.number: 100
--
molecule: Cc1ccc(Nc2nc3c(s2)C(=O)c2ccccc2C3=O)cc1
unit.label: µM
value.prefix: =
result.number: 3.92
--
molecule: CCCCSSC(=S)N(CC)CC
unit.label: µM
value.prefix: >
result.number: 100
--
molecule: O=C(c1ccco1)N(Cc1cccnc1)C(=S)N(Cc1cccnc1)C(=O)c1ccco1
unit.label: µM
value.prefix: =
result.number: 29.7
--
molecule: Clc1ccc(C(c2ccc(Cl)cc2)c2cncnc2)cc1
unit.label: µM
value.prefix: =
result.number: 28.7
--
molecule: CC1(C)CC(=O)C(C(=O)C(=O)NC2=C(Cl)C(=O)c3ccccc3C2=O)C(=O)C1
unit.label: µM
value.prefix: >
result.number: 100
--
molecule: CCN(CC)c1ccc2cc(C(=O)Nc3ccccc3OC)c(=N)oc2c1
unit.label: µM
value.prefix: >
result.number: 100
--
molecule: Cc1cc(O)c(C=NC(=S)C(N)=S)c(=O)o1
unit.label: µM
value.prefix: >
result.number: 100
--
molecule: C#CC[N+](CCO)(CCO)CCCCCCCCCCCCCCCCCC
unit.label: µM
value.prefix: =
result.number: 25.4
--
molecule: Cn1c([N+](=O)[O-])cnc1CN1CCN(CCO)CC1
unit.label: µM
value.prefix: >
result.number: 100
--
molecule: COc1ccc(NC(=O)C(=O)NO)c(OC)c1
unit.label: µM
value.prefix: =
result.number: 28.9
--
molecule: Cc1ccc2c(NCCCN(C)C)c3c(C)nn(C)c3nc2c1
unit.label: µM
value.prefix: =
result.number: 16.4
--
molecule: O=C1c2ccccc2C(=O)N1CCn1nc(-c2ccccc2)cc(-c2ccccc2)c1=O
unit.label: µM
value.prefix: >
result.number: 100
--
molecule: CC(SC(=S)Nc1cccc(F)c1)C(=O)O (centres undefined)
unit.label: µM
value.prefix: =
result.number: 36.4
--
molecule: O=C(Nc1cccc(-n2cc(-c3ccncc3)c(-c3ccc(Cl)c(O)c3)n2)c1)Nc1cccc(C(F)(F)F)c1
unit.label: µM
value.prefix: =
result.number: 6.91
--
molecule: CCOC(=O)Cn1c(=O)n(C)c(=O)c2[nH]cnc21
unit.label: µM
value.prefix: >
result.number: 100
--
molecule: Cc1cc(C)c2c(=O)cc(-c3cccc(Cl)c3)[nH]c2n1
unit.label: µM
value.prefix: >
result.number: 100
--
molecule: CC(C)(C)CC(C)(C)c1ccc(OCCSC(=N)N)cc1
unit.label: µM
value.prefix: =
result.number: 3.16
--
molecule: CCOC(=O)c1ccc(NC(=O)Nc2nccs2)cc1
unit.label: µM
value.prefix: =
result.number: 20.4
--
molecule: C[C@]12CC[C@@H]3c4ccc(O)cc4CC[C@H]3[C@@H]1CC[C@@H]2OC(=O)CCC1CCCC1
unit.label: µM
value.prefix: =
result.number: 27.5
--
molecule: COc1cc(OC)c(C#N)c(OC)c1C
unit.label: µM
value.prefix: >
result.number: 100
--
molecule: COC(=O)c1nc(-c2ccc(Cl)c(Cl)c2)nc2ccc(Cl)cc12
unit.label: µM
value.prefix: >
result.number: 100
--
molecule: COc1cc(/C=C/c2cccnc2)cc(OC)c1OC
unit.label: µM
value.prefix: >
result.number: 100
--
molecule: Nc1[nH]c(=O)nc2c1cnn2Cc1ccccc1
unit.label: µM
value.prefix: >
result.number: 100
--
molecule: Brc1sc(Br)c2c1[C@H](Br)C[C@@H]2Br
unit.label: µM
value.prefix: =
result.number: 88
--
molecule: CSc1nc(-c2ccccc2)c(C#N)c(=O)[nH]1
unit.label: µM
value.prefix: >
result.number: 100
--
molecule: CC1(C)N([O-])[N+](=O)C1(C)Br (centres undefined)
unit.label: µM
value.prefix: >
result.number: 100
--
molecule: CC(C)=CCc1c(O)c(CC2=C(O)C(C)=C(O)C(CC=C(C)C)(C(=O)C(C)C)C2=O)c(O)c(C(=O)C(C)C)c1O (centres undefined)
unit.label: µM
value.prefix: =
result.number: 22.4
--
molecule: CCC(CC)COC(=O)[C@H](C)N[P@](=O)(OC[C@H]1O[C@@](C#N)(c2ccc3c(N)ncnn23)[C@H](O)[C@@H]1O)Oc1ccccc1
unit.label: µM
value.prefix: =
result.number: 11
--
molecule: C=C(C)[C@@H]1C/C=C(\COC(=O)[C@H](OC(C)=O)C(NC(=O)c2ccccc2)c2ccccc2)CC[C@H]2O[C@]2(C)CC/C=C(\C)CC1 (some centres undefined)
unit.label: µM
value.prefix: >
result.number: 50
--
molecule: O=c1ccc(N=Nc2ccccc2)ccc1Cl
unit.label: µM
value.prefix: =
result.number: 25.6
--
molecule: Cc1ccc2c(=O)cc(-c3cccc(Cl)c3)[nH]c2n1
unit.label: µM
value.prefix: >
result.number: 100
--
molecule: O=C1C2=C(CCCC2)Nc2cccc3ncn1c23
unit.label: µM
value.prefix: >
result.number: 100
--
molecule: C=C1C(=O)O[C@H]2[C@H]1CC/C(COC(=O)NCc1[nH]nc3ccccc13)=C\CC[C@@]1(C)O[C@@H]21
unit.label: µM
value.prefix: =
result.number: 3.67
--
molecule: N#Cc1ccsc1Nc1ccccc1[N+](=O)[O-]
unit.label: µM
value.prefix: >
result.number: 100
--
molecule: COc1cc(-c2cc(/C=C3\C(=O)Nc4ccc(Cl)cc43)[nH]n2)cc(OC)c1OC
unit.label: µM
value.prefix: =
result.number: 3.9
--
molecule: C/C=C(/C(=C/C)c1ccc(O)cc1)c1ccc(O)cc1
unit.label: µM
value.prefix: =
result.number: 18.7
--
molecule: Cc1cc(C)nc(NS(=O)(=O)c2ccc(NC(=O)c3cccc4c(Nc5ccc(S(=O)(=O)N=C(N)N)cc5)c5ccc(Cl)cc5nc34)cc2)n1
unit.label: µM
value.prefix: >
result.number: 100
--
molecule: O=NN(CCCl)C(=O)NC1CCC(C(=O)O)CC1 (centres undefined)
unit.label: µM
value.prefix: >
result.number: 100
--
molecule: CC(C)(C)C1=NC(=S)SC2=NC(=O)C3(NN21)c1ccccc1-c1ccccc13
unit.label: µM
value.prefix: >
result.number: 10
--
molecule: CC(C)(Oc1ccc(C(=O)c2ccc(Cl)cc2)cc1Cl)C(=O)Nc1c(Cl)cccc1Cl
unit.label: µM
value.prefix: >
result.number: 100

Cited source for all entries: PubChem BioAssay (NCI)
